These data points were gathered from patent US7217722B2.

# target under test: Rho kinase (fused protein of bovine Rho kinase catalyst region and glutathione S-transferase) (Bos taurus, UniProt Q28021)
# Sequence (Q28021 92-354 limits assumed): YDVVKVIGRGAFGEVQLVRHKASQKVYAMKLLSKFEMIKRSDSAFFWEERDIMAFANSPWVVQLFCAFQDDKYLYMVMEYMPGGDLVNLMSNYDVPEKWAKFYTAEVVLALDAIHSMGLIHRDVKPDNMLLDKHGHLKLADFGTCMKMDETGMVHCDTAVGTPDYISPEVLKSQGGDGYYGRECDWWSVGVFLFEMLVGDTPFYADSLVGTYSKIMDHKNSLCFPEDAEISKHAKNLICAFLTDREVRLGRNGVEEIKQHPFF
property measured: pIC50
Note: pIC50 values are expressed as the negative base-10 logarithm of concentration in M.

## Input Given O=C(Cc1ccc(O)c(O)c1)Nc1ccc2[nH]ncc2c1 , state its recorded pIC50.
## Output 6.40

## Input Given FC(F)(F)c1ccc(CN2CCC(Nc3ccc4[nH]ncc4c3)CC2)cc1 , state its recorded pIC50.
## Output 6.56

## Input Given O=C(Nc1ccc2c(c1)C(=O)NC2=O)Nc1c[nH]c2ccccc12 , state its recorded pIC50.
## Output 5.64

## Input Given O=C(NCc1c(Cl)cccc1Cl)Nc1ccncc1 , state its recorded pIC50.
## Output 6.11

## Input Given Fc1cccc(CN2CCC(Nc3ccc4[nH]ncc4c3)CC2)c1 , state its recorded pIC50.
## Output 6.50
